- measured on: T1, macaca fascicularis (mf) PRLR.mmh (soluble monomeric monkey PRLR) (Macaca fascicularis)
- T1 construct: called soluble monomeric PRLR protein
- T1 chain: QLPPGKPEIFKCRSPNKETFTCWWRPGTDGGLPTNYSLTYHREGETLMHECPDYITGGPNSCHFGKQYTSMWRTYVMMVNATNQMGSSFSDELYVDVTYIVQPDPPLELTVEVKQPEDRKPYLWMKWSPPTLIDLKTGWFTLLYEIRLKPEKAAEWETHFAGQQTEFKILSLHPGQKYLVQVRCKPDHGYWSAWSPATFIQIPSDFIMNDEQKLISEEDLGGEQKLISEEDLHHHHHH
- run description: SPR Biacore, 25 C, mAb capture
observed property: koff (s⁻¹)

H1H6960N (antibody, human IgG1, V domains shown, Tested with human IgG1 Fc (H1H); also called H2M6960N) VH: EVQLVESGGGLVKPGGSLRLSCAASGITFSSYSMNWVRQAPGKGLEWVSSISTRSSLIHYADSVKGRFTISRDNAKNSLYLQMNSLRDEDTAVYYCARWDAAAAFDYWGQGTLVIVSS VL: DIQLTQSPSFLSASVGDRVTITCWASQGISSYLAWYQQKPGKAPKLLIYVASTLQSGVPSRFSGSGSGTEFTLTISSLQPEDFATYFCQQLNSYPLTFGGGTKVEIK | 0.000583
H1H6785P (antibody, human IgG1, V domains shown, Human IgG1 Fc (H1H)) VH: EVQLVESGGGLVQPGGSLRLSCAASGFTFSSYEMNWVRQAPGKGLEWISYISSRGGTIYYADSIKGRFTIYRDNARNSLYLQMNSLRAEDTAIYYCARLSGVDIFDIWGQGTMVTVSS VL: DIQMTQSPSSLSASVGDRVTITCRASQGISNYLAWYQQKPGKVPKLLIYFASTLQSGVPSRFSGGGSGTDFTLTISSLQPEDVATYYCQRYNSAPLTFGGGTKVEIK | 0.000167
H1H6803P (antibody, human IgG1, V domains shown, Human IgG1 Fc (H1H)) VH: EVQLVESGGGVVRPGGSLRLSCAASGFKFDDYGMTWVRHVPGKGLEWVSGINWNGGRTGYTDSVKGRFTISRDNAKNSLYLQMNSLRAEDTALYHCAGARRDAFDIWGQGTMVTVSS VL: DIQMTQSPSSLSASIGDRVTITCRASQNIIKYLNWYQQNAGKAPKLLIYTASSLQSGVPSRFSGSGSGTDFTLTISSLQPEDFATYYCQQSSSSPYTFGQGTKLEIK | 0.000209
H1H6804P (antibody, human IgG1, V domains shown, Human IgG1 Fc (H1H)) VH: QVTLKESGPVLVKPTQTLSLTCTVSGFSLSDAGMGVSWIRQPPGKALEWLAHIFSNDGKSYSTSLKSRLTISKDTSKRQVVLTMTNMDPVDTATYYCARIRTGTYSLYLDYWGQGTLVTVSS VL: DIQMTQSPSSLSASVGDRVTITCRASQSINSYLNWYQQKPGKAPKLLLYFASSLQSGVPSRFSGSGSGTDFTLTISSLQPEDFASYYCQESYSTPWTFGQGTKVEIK | 0.000657
